# Tested on: anti-CD28 scFv (SEQ ID NO: 9)
# Sequence (as listed by the source): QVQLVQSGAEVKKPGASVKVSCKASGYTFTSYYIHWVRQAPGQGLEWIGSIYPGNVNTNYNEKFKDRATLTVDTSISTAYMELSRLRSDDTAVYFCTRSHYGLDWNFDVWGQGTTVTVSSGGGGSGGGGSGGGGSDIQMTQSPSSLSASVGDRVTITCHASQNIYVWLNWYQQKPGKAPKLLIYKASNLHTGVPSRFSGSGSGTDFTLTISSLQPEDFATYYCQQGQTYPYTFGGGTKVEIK
# PROTOCOL_SUMMARY: Kinetic binding of anti-CD28 scFv to peptides, bio-layer interferometry (Octet RED96)
# EXPERIMENTAL_CONTEXT: Table 36; anti-CD28 scFv titrated 100-12.5 nM, 200 nM peptide loaded
EXPERIMENTAL_ENDPOINT: kon

Examples with answers:
MDWCPRERWVDCFF [Peptide-9]
41500 M⁻¹ s⁻¹
MDWCPVHLWSVCFA [Peptide-50]
92300 M⁻¹ s⁻¹
MDWCPRDLWSECFF [Peptide-40]
38800 M⁻¹ s⁻¹
MDWCPRDLWHECFA [Peptide-38]
30000 M⁻¹ s⁻¹
MDWCPIDLWNECFF [Peptide-31]
51400 M⁻¹ s⁻¹

query: Which measured kon value corresponds to MDWCPRDMWSVCFS [Peptide-44] ?
result: 21700 M⁻¹ s⁻¹

query: Thanks! And MDWCPRHMWNYCFA [Peptide-46] ?
result: 61900 M⁻¹ s⁻¹

====

# Tested on: PSMA Fab
# Sequence (as listed by the source): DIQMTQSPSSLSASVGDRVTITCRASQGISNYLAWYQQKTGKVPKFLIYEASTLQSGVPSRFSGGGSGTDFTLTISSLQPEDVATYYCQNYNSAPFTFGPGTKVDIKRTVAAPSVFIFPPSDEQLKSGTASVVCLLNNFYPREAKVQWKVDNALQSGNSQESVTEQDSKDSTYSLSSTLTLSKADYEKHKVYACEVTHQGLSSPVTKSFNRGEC
# Sequence (as listed by the source): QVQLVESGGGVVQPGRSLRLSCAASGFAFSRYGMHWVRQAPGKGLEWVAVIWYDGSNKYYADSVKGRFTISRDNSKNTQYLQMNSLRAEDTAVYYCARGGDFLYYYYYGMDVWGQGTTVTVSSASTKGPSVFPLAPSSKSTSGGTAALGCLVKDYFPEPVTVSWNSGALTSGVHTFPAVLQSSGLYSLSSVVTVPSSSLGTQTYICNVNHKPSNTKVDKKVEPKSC
# PROTOCOL_SUMMARY: Phage binding ELISA, PSMA Fab, with or without PSMA antigen (peptide-179 and peptide-180 libraries)
# EXPERIMENTAL_CONTEXT: peptide-180 library clonal phage; background (no Fab)
Where no end group is shown, it is not given here.
EXPERIMENTAL_ENDPOINT: Phage binding ELISA Background signal
Please respond with just the number, no unit label.

Phage-2864 (IETWCVPRWMCEGF)
0.0693
Phage-2816 (GDKWCKPSWMCDFF)
0.0602
Phage-2796 (LNNWCTPAWMCVGY)
0.0697
Phage-2855 (WEMKCIPEWMCRGF; cysteine pairing not given here; also: large carriers left off)
0.0794
Phage-2798 (HFKWCIPPWMCLEI)
0.0798

query: State its Phage binding ELISA Background signal on PSMA Fab: Phage-2869 (WPQLCVPMWMCAGL)
result: 0.1456

====

# System: PSMA Fab (SEQ ID NOs: 19, 20) binding to the PSMA antigen
# Sequence (Q04609 whole entry partner): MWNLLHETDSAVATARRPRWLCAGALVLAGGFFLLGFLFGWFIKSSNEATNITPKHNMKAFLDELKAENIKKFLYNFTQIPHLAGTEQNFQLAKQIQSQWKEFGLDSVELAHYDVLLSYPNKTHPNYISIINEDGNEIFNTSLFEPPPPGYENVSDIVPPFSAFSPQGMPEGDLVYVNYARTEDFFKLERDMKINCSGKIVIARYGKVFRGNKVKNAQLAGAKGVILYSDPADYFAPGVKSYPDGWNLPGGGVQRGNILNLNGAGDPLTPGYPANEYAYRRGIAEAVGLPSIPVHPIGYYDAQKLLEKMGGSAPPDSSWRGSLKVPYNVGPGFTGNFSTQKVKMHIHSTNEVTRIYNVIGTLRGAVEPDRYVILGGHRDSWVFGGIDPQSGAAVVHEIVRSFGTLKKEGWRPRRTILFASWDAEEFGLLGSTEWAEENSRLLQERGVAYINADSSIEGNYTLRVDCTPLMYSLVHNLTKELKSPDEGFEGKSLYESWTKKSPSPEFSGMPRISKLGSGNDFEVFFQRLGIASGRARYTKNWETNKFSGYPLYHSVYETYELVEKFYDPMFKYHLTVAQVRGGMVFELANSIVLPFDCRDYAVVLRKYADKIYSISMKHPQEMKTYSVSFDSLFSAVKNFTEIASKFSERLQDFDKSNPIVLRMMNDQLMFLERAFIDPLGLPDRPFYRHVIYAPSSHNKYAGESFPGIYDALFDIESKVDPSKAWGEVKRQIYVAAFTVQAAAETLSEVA
# PROTOCOL_SUMMARY: Inhibition of PSMA Fab binding to PSMA by peptides, competition ELISA (incl. alanine scanning)
# Parameters: key: tolerant (T); somewhat tolerant (ST); intolerant (IT)
# EXPERIMENTAL_CONTEXT: Table 40; alanine scanning of Peptide-179, change in binding inhibition relative to non-mutated peptide
EXPERIMENTAL_ENDPOINT: Mutation Status

Examples with answers:
Peptide-2687 (LMAWCTPRWMCAAE)
ST
LAKWCTPRWMCAAE [Peptide-242]
T
LMKWCTARWMCAAE [Peptide-246]
IT
LMKWCTPRWACAAE [Peptide-249]
IT
LMKWCTPAWMCAAE [Peptide-247]
T
AMKWCTPRWMCAAE [Peptide-241]
T
LMKWCAPRWMCAAE [Peptide-245]
ST
LMKWCTPRWMC [Peptide-250]
T
LMKACTPRWMCAAE [Peptide-244]
ST

query: Which measured Mutation Status value corresponds to LMKWCTPRAMCAAE [Peptide-248] ?
result: IT

====

# System: PSMA Fab (SEQ ID NOs: 19, 20) binding to the PSMA antigen
# PROTOCOL_SUMMARY: Inhibition of PSMA Fab binding to PSMA by peptides, competition ELISA (incl. alanine scanning)
# Set-up: key: tolerant (T); somewhat tolerant (ST); intolerant (IT)
# EXPERIMENTAL_CONTEXT: Table 41; alanine scanning of Peptide-180, change in binding inhibition relative to non-mutated peptide
EXPERIMENTAL_ENDPOINT: Mutation Status

IAVLCQPNWMCAAF [Peptide-259]
ST
IAVLCQPNAMCAGF [Peptide-257]
IT
IAALCQPNWMCAGF [Peptide-252]
T
